Here, each record is paired with measured Ki data.
# Study target: C-X-C chemokine receptor type 3 (Mus musculus, UniProt O88410)
# Sequence (O88410 whole entry): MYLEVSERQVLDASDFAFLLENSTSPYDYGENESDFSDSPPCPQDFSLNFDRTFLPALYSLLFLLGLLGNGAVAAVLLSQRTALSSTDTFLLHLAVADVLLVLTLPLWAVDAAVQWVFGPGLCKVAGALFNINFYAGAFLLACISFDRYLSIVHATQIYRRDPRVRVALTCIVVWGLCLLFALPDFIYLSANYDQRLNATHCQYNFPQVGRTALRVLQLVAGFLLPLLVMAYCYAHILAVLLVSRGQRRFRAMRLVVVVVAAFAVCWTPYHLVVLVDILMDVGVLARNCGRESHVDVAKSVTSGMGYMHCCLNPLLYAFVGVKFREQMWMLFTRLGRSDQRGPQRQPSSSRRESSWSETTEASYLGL
# Test name: Antagonist activity at mouse CXCR3
Measured attribute: Ki (µM)

>  <Compound>
CC(=O)N1C2C=C(CN3C4CCC3CC(NC(=O)Nc3cc(F)cc(C(F)(F)F)c3)C4)CC1CCC2 (stereo not drawn)

>  <Display unit>
µM

>  <Observed>
0.006

$$$$
>  <Compound>
O=C(Nc1cc(F)cc(C(F)(F)F)c1)NC1CCN(CC2=CC3CCC(C2)N3C(=O)C2CC2)CC1 (stereo not drawn)

>  <Display unit>
µM

>  <Observed>
0.08

$$$$
>  <Compound>
CC(C)(C)C(=O)N1C2C=C(CN3CCC(NC(=O)Nc4cc(F)cc(C(F)(F)F)c4)CC3)CC1CC2 (stereo not drawn)

>  <Display unit>
µM

>  <Observed>
0.1

$$$$
>  <Compound>
CC(=O)N1C2C=C(CN3CCC(NC(=O)Nc4cccc(OC(C)C)c4)CC3)CC1CCC2 (stereo not drawn)

>  <Display unit>
µM

>  <Observed>
0.033

$$$$
>  <Compound>
CC(C)(C)C(=O)N1C2C=C(CN3CCC(NC(=O)Nc4cc(F)cc(C(F)(F)F)c4)CC3)CC1CCC2 (stereo not drawn)

>  <Display unit>
µM

>  <Observed>
0.057

$$$$
>  <Compound>
CC(=O)N1C2CCC1CC(CN1CCC(NC(=O)Nc3cc(F)cc(C(F)(F)F)c3)CC1)C2 (mixture of isomers)

>  <Display unit>
µM

>  <Observed>
0.65

$$$$
>  <Compound>
CC1(C)[C@H]2CC=C(CN3CCC(NC(=O)Nc4cc(C(F)(F)F)cc(C(F)(F)F)c4)CC3)[C@@H]1C2

>  <Display unit>
µM

>  <Observed>
0.4

$$$$
>  <Compound>
CC(=O)N1C2C=C(CN3CCC(NC(=O)Nc4cc(F)cc(C(F)(F)F)c4)CC3)CC1CCC2 (stereo not drawn)

>  <Display unit>
µM

>  <Observed>
0.038

$$$$

Source: ChEMBL document CHEMBL1140788
